Reported values of pIC50 for individual entries
assay-name: Cytotoxicity against human HCT8 cells assessed as cell viability after 72 hrs by MTT assay
Assay type: functional, cell-based
measurement-conditions: HCT-8, 72 h
Reminder that pIC50 means the negative base-10 logarithm of the concentration expressed in mol/L.

The recorded pIC50 for entry CC1(C)CC(Nc2ccc(Cl)cc2)C2=C(O1)C(=O)c1ccccc1C2=O (centres undefined) equals 6.19

Entry CC1(C)CC(n2cc(C3CCCCC3)nn2)C2=C(O1)C(=O)c1ccccc1C2=O (centres undefined) ; pIC50 = 4.91

Measured pIC50, CC1(C)OC2=C(C(=O)c3ccccc3C2=O)C1n1cc(-c2ccccc2)nn1 (centres undefined) : 5.04

Query O=C1C=C(NCc2cn(C3=CC(=O)c4ccccc4C3=O)nn2)C(=O)c2ccccc21 yields pIC50 of 5.57

====

System: HL-60
assay-name: Cytotoxicity against human HL60 cells assessed as cell viability after 72 hrs by MTT assay
Format: functional, cell-based
measurement-conditions: HL-60, 72 h
pIC50: −log10 of the molar value.
The entries below are paired with their reported pIC50.

Some solved cases for reference:
- structure-smiles: "O=C1C=C(n2cc(CNC3=C(Br)C(=O)c4ccccc4C3=O)nn2)C(=O)c2ccccc21"
  pIC50: "< 5.00"
- structure-smiles: "O=C1C(Cl)=C(NCc2cn(CCN3C(=O)c4ccccc4C3=O)nn2)C(=O)c2ccccc21"
  pIC50: "< 5.00"
- structure-smiles: "O=C1C=C(NCc2cn(CCCCN3C(=O)c4ccccc4C3=O)nn2)C(=O)c2ccccc21"
  pIC50: "< 5.00"
- structure-smiles: "O=C1C(Br)=C(NCc2cn(CCN3C(=O)c4ccccc4C3=O)nn2)C(=O)c2ccccc21"
  pIC50: "< 5.05"
- structure-smiles: "O=C1C(Cl)=C(NCc2cn(CCCCN3C(=O)c4ccccc4C3=O)nn2)C(=O)c2ccccc21"
  pIC50: "< 5.00"
- structure-smiles: "O=C1C=C(NCc2cn(CN3C(=O)c4ccccc4C3=O)nn2)C(=O)c2ccccc21"
  pIC50: "< 4.92"
- structure-smiles: "O=C1C(Br)=C(NCc2cn(CN3C(=O)c4ccccc4C3=O)nn2)C(=O)c2ccccc21"
  pIC50: "< 5.00"

Here is another compound to look at.
compound O=C1C(Br)=C(NCc2cn(-c3cccc([N+](=O)[O-])c3)nn2)C(=O)c2ccccc21 , pIC50 observed: < 4.96

====

System: HL-60
assay-name: Cytotoxicity against human HL60 cells assessed as cell viability after 72 hrs by MTT assay
Format: functional, cell-based
measurement-conditions: HL-60, 72 h
measure: IC50

These solved cases illustrate the format of a correct answer.
- structure-smiles: "O=C1C(Br)=C(NCc2cn(CCCN3C(=O)c4ccccc4C3=O)nn2)C(=O)c2ccccc21"
  IC50: "> 9 µM"
- structure-smiles: "O=C1C=C(NCc2cn(-c3cccc([N+](=O)[O-])c3)nn2)C(=O)c2ccccc21"
  IC50: "> 13 µM"
- structure-smiles: "O=C1C=C(NCc2cn(CCN3C(=O)c4ccccc4C3=O)nn2)C(=O)c2ccccc21"
  IC50: "> 11 µM"
- structure-smiles: "O=C1C=C(NCc2cn(CCCN3C(=O)c4ccccc4C3=O)nn2)C(=O)c2ccccc21"
  IC50: "> 11 µM"

compound O=C1C(Cl)=C(NCc2cn(CCCN3C(=O)c4ccccc4C3=O)nn2)C(=O)c2ccccc21 , IC50 observed: > 10 µM
